experimental_target: PI3K (p110α/p85α) (Homo sapiens (Human))
Sequence (P42336 whole entry): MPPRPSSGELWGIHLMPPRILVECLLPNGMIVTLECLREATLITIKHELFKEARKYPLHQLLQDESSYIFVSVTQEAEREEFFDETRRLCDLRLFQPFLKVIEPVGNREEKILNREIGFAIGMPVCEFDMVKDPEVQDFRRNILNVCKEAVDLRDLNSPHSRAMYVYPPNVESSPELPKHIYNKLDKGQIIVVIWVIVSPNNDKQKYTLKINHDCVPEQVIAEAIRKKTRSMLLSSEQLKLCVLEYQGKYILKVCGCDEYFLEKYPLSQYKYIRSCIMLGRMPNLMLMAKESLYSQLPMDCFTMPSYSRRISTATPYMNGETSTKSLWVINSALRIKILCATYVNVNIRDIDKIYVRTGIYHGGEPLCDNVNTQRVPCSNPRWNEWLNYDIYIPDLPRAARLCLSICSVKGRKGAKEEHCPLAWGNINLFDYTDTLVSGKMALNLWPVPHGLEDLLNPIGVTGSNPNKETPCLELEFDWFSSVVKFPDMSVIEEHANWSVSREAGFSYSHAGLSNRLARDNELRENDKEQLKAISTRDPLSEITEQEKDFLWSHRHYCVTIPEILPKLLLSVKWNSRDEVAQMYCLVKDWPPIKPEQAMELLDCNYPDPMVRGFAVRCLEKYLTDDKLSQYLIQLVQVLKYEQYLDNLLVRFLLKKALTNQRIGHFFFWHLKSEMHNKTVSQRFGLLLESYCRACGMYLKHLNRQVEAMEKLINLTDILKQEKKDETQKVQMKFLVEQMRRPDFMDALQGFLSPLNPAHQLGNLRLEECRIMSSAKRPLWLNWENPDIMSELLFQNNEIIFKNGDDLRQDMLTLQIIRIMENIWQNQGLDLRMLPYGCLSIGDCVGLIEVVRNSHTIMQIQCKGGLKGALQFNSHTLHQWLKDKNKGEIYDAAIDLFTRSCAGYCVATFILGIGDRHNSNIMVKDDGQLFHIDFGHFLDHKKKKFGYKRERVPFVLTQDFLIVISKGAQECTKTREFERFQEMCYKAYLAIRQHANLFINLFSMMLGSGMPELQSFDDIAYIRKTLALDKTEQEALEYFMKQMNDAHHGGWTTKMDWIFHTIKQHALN
Sequence (P27986 whole entry partner): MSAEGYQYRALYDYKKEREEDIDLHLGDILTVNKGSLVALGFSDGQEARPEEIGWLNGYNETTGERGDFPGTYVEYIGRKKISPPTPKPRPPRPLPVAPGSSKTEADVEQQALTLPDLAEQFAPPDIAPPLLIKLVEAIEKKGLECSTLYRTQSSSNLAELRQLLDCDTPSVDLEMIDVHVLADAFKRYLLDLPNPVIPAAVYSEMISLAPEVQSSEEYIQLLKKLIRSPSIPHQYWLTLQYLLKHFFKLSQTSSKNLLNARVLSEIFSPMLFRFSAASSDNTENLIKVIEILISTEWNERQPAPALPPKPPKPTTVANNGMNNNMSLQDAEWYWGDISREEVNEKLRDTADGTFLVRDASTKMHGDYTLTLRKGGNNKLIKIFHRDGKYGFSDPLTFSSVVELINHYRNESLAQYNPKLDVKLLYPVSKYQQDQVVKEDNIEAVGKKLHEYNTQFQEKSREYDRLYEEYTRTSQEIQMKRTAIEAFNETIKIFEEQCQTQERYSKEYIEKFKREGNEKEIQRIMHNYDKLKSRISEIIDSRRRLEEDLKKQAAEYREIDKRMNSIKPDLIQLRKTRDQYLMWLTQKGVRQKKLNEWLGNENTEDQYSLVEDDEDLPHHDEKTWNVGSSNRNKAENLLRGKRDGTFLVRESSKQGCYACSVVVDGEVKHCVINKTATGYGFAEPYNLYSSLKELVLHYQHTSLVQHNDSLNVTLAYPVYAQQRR
method_notes: PI3K Activity Assay (ADP Hunter Plus)
Assay type: biochemical
study_conditions: read-out: Biological activity in PI3Kα, semi-quantitative
Kindly supply the reported IC50 values for the records listed here.

Solved entries (count: 2):
* Nc1ncc(-c2cnc3sc(-c4ccc5c(c4)C4(CCNCC4)C(=O)N5)nn23)cc1C(F)(F)F | < 100 nM
* N#Cc1ccc(-c2nn3c(-c4cnc(N)c(C(F)(F)F)c4)cnc3s2)cc1 | 100 to 1000 nM

// query Which IC50 reading was recorded for the compound COc1cc(-c2nn3c(-c4cnc(N)c(C(F)(F)F)c4)c(C)nc3s2)ccc1OCCN1CCOCC1 ?
// result 1000 to 50000 nM
